src = patent US20210017275A1

EXPERIMENTAL TARGET: T1, human Siglec-5 expressed on human primary cells (human, UniProt O15389 17-551)
T1 construct: Endogenous receptor on human primary monocytes, dendritic cells, macrophages and neutrophils; also called CD170
T1 sequence: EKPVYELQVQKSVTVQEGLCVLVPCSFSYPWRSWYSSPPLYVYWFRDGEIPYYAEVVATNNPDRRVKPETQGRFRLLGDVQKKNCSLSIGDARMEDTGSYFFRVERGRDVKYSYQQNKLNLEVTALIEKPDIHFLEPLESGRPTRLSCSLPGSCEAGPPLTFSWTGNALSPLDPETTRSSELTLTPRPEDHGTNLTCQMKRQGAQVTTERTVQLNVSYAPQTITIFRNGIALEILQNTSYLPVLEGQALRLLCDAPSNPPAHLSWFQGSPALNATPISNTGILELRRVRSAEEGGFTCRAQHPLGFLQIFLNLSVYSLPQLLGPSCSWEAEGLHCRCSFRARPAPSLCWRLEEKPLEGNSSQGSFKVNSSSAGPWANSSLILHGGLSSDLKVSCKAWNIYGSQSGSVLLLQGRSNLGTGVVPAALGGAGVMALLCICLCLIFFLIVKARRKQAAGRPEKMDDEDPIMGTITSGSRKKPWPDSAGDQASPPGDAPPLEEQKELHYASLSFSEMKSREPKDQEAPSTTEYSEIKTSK
METHOD: flow cytometry, human primary neutrophils, 10 ug/ml mAb
// values below are reported MFI
MEASUREMENT LABEL: MFI

[[record]]
binder = "anti-Siglec-5 monoclonal antibody 9B1 (antibody, IgG1, V domains shown) VH: QVQLQQSGAELVKPGASVKLSCKASGYTFTEYTIHWVKQRSGQGLEWIGWFYPGSGSIKYNEKFKDKATLTADKSSSTVYMELSRLTSEDSAVYFCARQEEGGIGFDYWGQGTTLTVSS VL: DVLMTQTPLSLLVSLGDQASISCRSSQSIVHSNGNTYLEWYLQKPGQSPKLLIYKVSIRFSGVPDRFSGSGSGTDFTLKISRVEAEDLGVYYCFQGSHVPWTFGGGTKLEIK"
val = 411

[[record]]
binder = "anti-Siglec-5 monoclonal antibody 11C6 (antibody, IgG1, V domains shown, also called 1106) VH: QVQLQQSGAELVKPGASVKLSCKASGYTFTEYTIHWVKQRSGQGLEWIGWFYPGSGSIKYNEKFKDKATLTAVKSSSTVYMEFSRLTSEDSAVYFCARQDYDGLGFAYWGQGTLVTVSA VL: DVLMTQTPLSLPVSLGDQASISCRSSQTIVHSNGNTYLEWYLQKPGQSPKLLIYKVSNRFSGVPDRFSGSGSGTDFTLKISRVEAEDLGVYYCFQGSHVPWTFGGGTKLEIK"
val = 500

[[record]]
binder = "anti-Siglec-5 monoclonal antibody 11H3 (antibody, IgG1, V domains shown) VH: QVQLQQSGPELVKPGASVKVSCKASDYAFTSYNIYWVKQSHGKSLEWIGYIDPYNGGTSYNQTFKGKATLTVDKSSSTAYMHLNSLTSEDSAVYYCAMKVGYEAMDYWGQGTSVTVSS VL: DIQMTQSQKFMSTSVGDRVSVTCKASQNVGTNVAWYQQKPGQSPKALIYSASYRYSGVPDRFTGSGSGTDFTLNISNVQSEDLAEYFCQQFNSYPYTFGGGTKLEIK"
val = 367

[[record]]
binder = "anti-Siglec-5 monoclonal antibody 8A1 (antibody, IgG1, V domains shown) VH: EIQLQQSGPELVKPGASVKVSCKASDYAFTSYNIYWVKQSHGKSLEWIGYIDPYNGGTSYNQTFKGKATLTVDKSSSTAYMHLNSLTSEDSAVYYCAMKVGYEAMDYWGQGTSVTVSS VL: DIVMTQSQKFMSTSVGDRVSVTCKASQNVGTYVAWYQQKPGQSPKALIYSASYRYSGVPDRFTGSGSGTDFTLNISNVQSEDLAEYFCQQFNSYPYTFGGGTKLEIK"
val = 219

[[record]]
binder = "anti-Siglec-5 monoclonal antibody 5H2 (antibody, IgG1, V domains shown) VH: EVQLQQSGPELVKPGASVKVSCKASGYSFTDYNMYWVKQSHGKSLEWIGYIDPYNGGTSYNQKFKGKATLTVDKSSSTAFMLLNSLTSEDSAVYYCALYYDYDGIPYWGQGTLVTVSA VL: DIVMTQSQKFMSTSVGDRVSVTCKASQNVGTNVAWYRQKPGQSPKALIYSASYRYNGVPDRFTGSGSGTDFTLTISNVQSEDLAEYFCQQYNSYPYTFGGGTKLEIK"
val = 329

